Test system: 786-0
Assay: NCI tumour cell line growth inhibition, 48 h
Calls of active or inactive are those of the source. Rule as the data show it: active = GI50 up to about 1.1 µM and inactive = higher. Where a SMILES comes first, the peptide text is derived from it. [ ]: non-standard residue; d: D form. The star is where a group is joined. ξ: configuration not given here. ξD = NC(CC(=O)O)C(=O)O; Boc = CC(C)(C)OC(=O)*; Aib = CC(C)(N)C(=O)O; OBn = c1ccc(CO*)cc1
Form entry, call: pick from active, inactive

Dear all, I need the recorded test outcome for C=CCNC1=C(C(=O)OCC)C(=O)CO1 , thank you. inactive

Dear all, I need the recorded test outcome for CSc1ncnc2c1ncn2CCC(=O)O , thank you. inactive

Dear all, I need the recorded test outcome for CC(C)(C)OC(=O)NC(CC(=O)OCc1ccccc1)C(=O)NC(C)(C)C(N)=O (stereo unspecified) (Boc-[ξD](OBn)-[Aib]-NH2) , thank you. inactive

Dear all, I need the recorded test outcome for CCC12CCCN3CCc4c(n(c5ccccc45)C(O)(C(=O)OC)C1)C32 (stereo unspecified) , thank you. inactive

Dear all, I need the recorded test outcome for CCCCN(CCCC)/C(=N\C#N)NCc1ccccc1 , thank you. inactive

Dear all, I need the recorded test outcome for CCCCCCCCCCCCCC(=O)OCC1OC(=O)CC1O (stereo unspecified) , thank you. inactive

Dear all, I need the recorded test outcome for Cc1ccc2c(c1)OC1Nc3ccccc3C1=C2O (stereo unspecified) , thank you. inactive

Dear all, I need the recorded test outcome for C=C(C)C12CC3CC/C(=N/O)C(C1)C3(N1CCOCC1)C/C2=N/O (stereo unspecified) , thank you. inactive

Dear all, I need the recorded test outcome for COc1cccc2c1C(=O)c1c(O)c3c(c(O)c1C2=O)C[C@@](O)(C(C)O)C[C@@H]3OC1CC(N)C(O)C(C)O1 (stereo partly specified) , thank you. active

Dear all, I need the recorded test outcome for CC(C)=CCCC(C)C1=C(O)C(=O)C(C)=CC1=O (stereo unspecified) , thank you. inactive

Dear all, I need the recorded test outcome for O=[N+]([O-])c1ccc(S(=O)(=O)n2c3ccc(Br)cc3c3nc4ccccc4nc32)cc1 , thank you. inactive

Dear all, I need the recorded test outcome for CC(C)(C)OC(=O)N1CCC(C(=O)O)CC1 , thank you. inactive

Dear all, I need the recorded test outcome for NCCNCC1CCNCC1 , thank you. inactive

Dear all, I need the recorded test outcome for O=[N+]([O-])c1ccc(/C=N/n2c(S)nnc2CCc2nnc(S)n2/N=C/c2ccc([N+](=O)[O-])o2)o1 , thank you. inactive

Dear all, I need the recorded test outcome for COc1ccc(C(=O)c2sc(Nc3ccccc3)nc2N)cc1 , thank you. inactive

Dear all, I need the recorded test outcome for CC(=O)OCc1cc(OC(C)=O)c2cc3c(OC(C)=O)cccc3c(OC(C)=O)c2c1 , thank you. inactive

Dear all, I need the recorded test outcome for CN(N=O)C(=O)Nc1c[nH]c(=O)[nH]c1=O , thank you. inactive

Dear all, I need the recorded test outcome for CC1=Cc2cccc(C)c2C(=O)C1=O , thank you. inactive

Dear all, I need the recorded test outcome for CCOC(=O)/C(=C\c1ccc(C#N)cc1)C(C)=O , thank you. inactive

Dear all, I need the recorded test outcome for Cc1ccc(C)n1-n1c(Cc2ccc(Cl)cc2)n[nH]c1=O , thank you. inactive

Dear all, I need the recorded test outcome for COc1ccc(/C=C2\C(=O)N(C(=O)c3ccc(NC(C)=O)cc3)N=C2C)cc1OC , thank you. inactive

Dear all, I need the recorded test outcome for N#CC1=C(N)N2C(=O)/C(=C/c3ccccc3)SC2C(c2nc3ccccc3[nH]2)=C1c1ccccc1 (stereo unspecified) , thank you. inactive

Dear all, I need the recorded test outcome for Cc1c(C(=O)CSc2nc3ccccc3[nH]2)c(=O)n(-c2ccccc2)n1C , thank you. inactive

Dear all, I need the recorded test outcome for N#Cc1ccccc1NC(=O)C(=O)C1NC(=S)NC1=O (stereo unspecified) , thank you. inactive

Dear all, I need the recorded test outcome for COc1ccc(/N=N/C(=O)NC(Cc2ccccc2)C(=O)O)cc1 (stereo unspecified) , thank you. inactive

Dear all, I need the recorded test outcome for COc1ccc2[nH]c3c(O)c(-c4c(C)cc5c([nH]c6ccc(OC)cc65)c4O)c(C)cc3c2c1 , thank you. inactive

Dear all, I need the recorded test outcome for COc1ccc(NCc2c(O)ccc3ccccc23)cc1 , thank you. inactive

Dear all, I need the recorded test outcome for COc1c(C(=O)/C(=N/Nc2ccc(C(=O)O)cc2)C(C)=O)c(O)cc2occc12 , thank you. inactive

Dear all, I need the recorded test outcome for O=C1CSC(c2c(O)ccc3ccccc23)N1n1c(S)nnc(/C=C/c2c(O)ccc3ccccc23)c1=O (stereo unspecified) , thank you. active

Dear all, I need the recorded test outcome for O=C(NCCO)c1ccc(Cl)cc1 , thank you. inactive

Dear all, I need the recorded test outcome for c1ccc2[nH]c(-c3nc4ccccc4o3)nc2c1 , thank you. inactive

Dear all, I need the recorded test outcome for CN1CCCCC1CCN1c2ccccc2Sc2ccc([S+](C)[O-])cc21 (stereo unspecified) , thank you. inactive

Dear all, I need the recorded test outcome for N#Cc1c(-c2ccccc2)c(/C=N/c2ccc(Cl)cc2)c(=O)n2c1[nH]c1ccccc12 , thank you. inactive

Dear all, I need the recorded test outcome for CO[C@@H]1/C=C\C=C(/C)C(=O)NC2=CC(=O)C(NCCN(C)C)=C(C[C@@H](C)C[C@@H](OC)[C@@H](O)[C@H](C)/C=C(\C)[C@H]1OC(N)=O)C2=O , thank you. active

Dear all, I need the recorded test outcome for COC(=O)c1ccccc1CC(Cc1ccc2c(c1)CCC2)C(=O)OC (stereo unspecified) , thank you. inactive

Dear all, I need the recorded test outcome for CC(=O)OCC(C)C1=C(OC(C)=O)C(=O)C2(C)C/C=C(/C)CC/C=C(\C)CCC(OC(C)=O)C(C)CCC12 (stereo unspecified) , thank you. inactive

Dear all, I need the recorded test outcome for O=S(=O)(Oc1ccc2oc3ccccc3c2c1-c1c(OS(=O)(=O)C(F)(F)F)ccc2oc3ccccc3c12)C(F)(F)F , thank you. inactive

Dear all, I need the recorded test outcome for O=C(Cc1ccc(Cl)c(Cl)c1)N(CCc1ccc(Cl)c(Cl)c1)CCN1CCCC1 , thank you. inactive

Dear all, I need the recorded test outcome for CC(C)=C1C(=O)C[C@]2(C)C/C=C(\C)CC/C=C(\C)CC[C@@H]12 , thank you. inactive

Dear all, I need the recorded test outcome for Cc1cccc2c1C(=O)OC2(C)c1cccc2ccccc12 (stereo unspecified) , thank you. inactive

Dear all, I need the recorded test outcome for O=C1c2cccc3cccc(c23)C(=O)N1CCCNCCCCNCCCNCCCN1C(=O)c2cccc3cccc(c23)C1=O , thank you. active
